Attribution: patent US20250326767A1

The compounds below have reported pIC50 for DYRK1B (Homo sapiens, UniProt Q9Y463).
pIC50: −log10 of the molar value.

Below are worked cases with known answers.
>>> df
                                   compound   assay_value
0  CC#CC1CCNC(=O)N1c1nc2c3c(ccc2s1)OCCO3 (single isomer, unassigned) [Example 5]        > 8.00
1  CC#CC1C[C@H](C)NC(=O)N1c1nc2c3c(ccc2s1)OCC3 (stereo in doubt) [Example 16]        < 6.00
2  CC#C[C@H]1[C@@H](C)CNC(=O)N1c1nc2c3c(ccc2s1)OCC3 (stereo in doubt) [Example 12]  6.00 to 7.00

Entry CC#CC1C[C@H](C)NC(=O)N1c1nc2c3c(ccc2s1)OCC3 (stereo in doubt) [Example 17] : reported pIC50 = ?
7.00 to 8.00

---

The compounds below have reported IC50 for DYRK2 (Homo sapiens, UniProt Q92630).

Below are worked cases with known answers.
                                   compound     assay_value
0  CC#CC1C[C@H](C)NC(=O)N1c1nc2c3c(ccc2s1)OCC3 (stereo in doubt) [Example 17]       > 1000 nM
1  CC#CC1CCNC(=O)N1c1nc2c3c(ccc2s1)OCCO3 (single isomer, unassigned) [Example 5]  100 to 1000 nM
2  CC#C[C@H]1[C@H](C)CNC(=O)N1c1nc2c3c(ccc2s1)OCC3 (stereo in doubt)       > 1000 nM

Lab request: please report IC50 under test system DYRK2 (Homo sapiens, UniProt Q92630) for CC#CC1N(c2nc3c4c(ccc3s2)OCC4)C(=O)NC12CC2 (single isomer, unassigned)
100 to 1000 nM

Also CC#C[C@@H]1[C@@H](C)CNC(=O)N1c1nc2c3c(ccc2s1)OCC3 (stereo in doubt) , if possible.
> 1000 nM

Also CC#CC1CCNC(=O)N1c1nc2c3c(ccc2s1)OCCO3 (single isomer, unassigned) [Example 6] , if possible.
> 1000 nM

Also CC#CC1N(c2nc3c4c(ccc3s2)OCC4)C(=O)NC12CCC2 (single isomer, unassigned) [Example 20] , if possible.
> 1000 nM
